Test system: A549, A549/DOX and A549/DDP lung cancer cell lines
Assay: MTT antiproliferative activity, summarised over the three lung cancer cell lines
Type: cell-based
Conditions: MTT assay, span of values over the three lung cancer cell lines; read-out: IC50 (range over A549, A549/DOX and A549/DDP)
pIC50: −log10 of the molar value.
attribute measured: pIC50

Take a look at these entries with their results.
[[record]]
molecule = "C[C@H]1[C@@H](O)O[C@@H]2O[C@@]3(C)CC[C@H]4[C@H](C)CC[C@@H]1[C@@]24OO3 [DHA, Dihydroartemisinin]"
subject_of_test = "A549, A549/DOX and A549/DDP lung cancer cell lines"
measured = "4.06 to 4.16"

[[record]]
molecule = "N.N.[Cl][Pt][Cl] [cisplatin, reference compound]"
subject_of_test = "A549, A549/DOX and A549/DDP lung cancer cell lines"
measured = "4.17 to 5.03"


Turning now to a further record.
Lab note: `C[C@@H]1CC[C@H]2[C@@H](C)C(=O)O[C@@H]3O[C@@]4(C)CC[C@@H]1[C@]32OO4` gave pIC50 of < 4.00

###

Test: Pharmacokinetic properties in CD-1 mice
Format: in vivo
Details: mouse, plasma, 30 mg/kg, read-out: F (bioavailability)
Record form. Attribute: bioavailability. Fill in for each entry.
One number for each entry, in %.

[[record]]
compound = "C[C@@H]1CC[C@H]2[C@@H](C)C(OCCCN3C(=O)C(=NNC(N)=S)c4cc(F)ccc43)O[C@@H]3O[C@@]4(C)CC[C@@H]1[C@]32OO4 (some centres unmarked) [6e]"
measured = 30.8


Next:
Query C[C@@H]1CC[C@H]2[C@@H](C)C(OCCCN3C(=O)C(=NO)c4ccccc43)O[C@@H]3O[C@@]4(C)CC[C@@H]1[C@]32OO4 (some centres unmarked) [6a] yields bioavailability of 39.7

###

Could you please report measured AUC for the items listed next?
Assay: Pharmacokinetic properties in CD-1 mice
Format: in vivo
Conditions: mouse, plasma, single intravenous dose of 30 mg/kg
One number for each entry, in µg·h/mL.

[[record]]
molecule = "C[C@@H]1CC[C@H]2[C@@H](C)C(OCCCN3C(=O)C(=NO)c4ccccc43)O[C@@H]3O[C@@]4(C)CC[C@@H]1[C@]32OO4 (some centres unmarked) [6a]"
attribute_measured = "AUC"
measured = 2.35


Proceeding to the next molecule to report its AUC.
Lookup result for C[C@@H]1CC[C@H]2[C@@H](C)C(OCCCN3C(=O)C(=NNC(N)=S)c4cc(F)ccc43)O[C@@H]3O[C@@]4(C)CC[C@@H]1[C@]32OO4 (some centres unmarked) [6e] ; measured AUC: 1.67

###

Assignment: determine reported Cmax for the given molecules.
Assay: Pharmacokinetic properties in CD-1 mice
Type: in vivo
Conditions: mouse, plasma, single intravenous dose of 30 mg/kg
Answers are plain numbers, in µM.

[[record]]
molecule = "C[C@@H]1CC[C@H]2[C@@H](C)C(OCCCN3C(=O)C(=NO)c4ccccc43)O[C@@H]3O[C@@]4(C)CC[C@@H]1[C@]32OO4 (some centres unmarked) [6a]"
attribute_measured = "Cmax"
units_of_measure = "µM"
measured = 18.9


Field Cmax (entry C[C@@H]1CC[C@H]2[C@@H](C)C(OCCCN3C(=O)C(=NNC(N)=S)c4cc(F)ccc43)O[C@@H]3O[C@@]4(C)CC[C@@H]1[C@]32OO4 (some centres unmarked) [6e] ) reads 10.7

###

Tested on: A549/DDP (cisplatin-resistant A549 cells)
Assay: MTT antiproliferative activity against cisplatin-resistant A549
Assay type: cell-based
Details: Homo sapiens; MTT assay, cisplatin-resistant A549 cells
pIC50: −log10 of the molar value.
I'd be grateful if you could share measured pIC50 for these entries.

Solved entries:
[[record]]
compound = "C[C@@H]1CC[C@H]2[C@@H](C)C(OCCCN3C(=O)C(=O)c4cc(Cl)ccc43)O[C@@H]3O[C@@]4(C)CC[C@@H]1[C@]32OO4 (stereo partly drawn)"
subject_of_test = "A549/DDP (cisplatin-resistant A549 cells)"
measured = 4.10

[[record]]
compound = "C[C@@H]1CC[C@H]2[C@@H](C)C(OCCCN3C(=O)C(=NNC(N)=O)c4cc(F)ccc43)O[C@@H]3O[C@@]4(C)CC[C@@H]1[C@]32OO4 (stereo partly drawn)"
subject_of_test = "A549/DDP (cisplatin-resistant A549 cells)"
measured = "< 4.00"


The recorded pIC50 for C[C@@H]1CC[C@H]2[C@@H](C)C(OCCCN3C(=O)C(=NNC(N)=O)c4ccccc43)O[C@@H]3O[C@@]4(C)CC[C@@H]1[C@]32OO4 (stereo partly drawn) is < 4.00

###

System: A549/DOX (doxorubicin-resistant A549 cells)
Experiment: MTT antiproliferative activity against doxorubicin-resistant A549
Format: cell-based
Settings: Homo sapiens; MTT assay, doxorubicin-resistant A549 cells
Excerpt: 3-(4,5-dimethylthiazol-2-yl)-2,5-diphenyltetrazolium bromide (MTT) assay was used to determined the antiproliferative activity of dihydroartemisinin-isatin hybrids 5a-e and 6a-j with three-carbon linker against A549, multidrug-resistant A549/DOX and A549/DDP lung cancer cell lines as well as cytotoxicity towards normal lung epithelial cell line (BEAS-2B). The inhibitory effects were expressed in terms of half maximal inhibitory concentration (IC50) values. […]
attribute measured: pIC50
Answers are plain numbers, as −log10 of the molar value.

[[record]]
compound = "COc1ccc2c(c1)C(=NNC(N)=S)C(=O)N2CCCOC1O[C@@H]2O[C@@]3(C)CC[C@H]4[C@H](C)CC[C@@H]([C@H]1C)[C@@]24OO3 (stereo partly drawn)"
measured = 4.11


Okay, here is my list. What is pIC50 for each of these?
1. Cc1ccc2c(c1)C(=NNC(N)=S)C(=O)N2CCCOC1O[C@@H]2O[C@@]3(C)CC[C@H]4[C@H](C)CC[C@@H]([C@H]1C)[C@@]24OO3 (stereo partly drawn)
2. COc1ccc2c(c1)C(=NO)C(=O)N2CCCOC1O[C@@H]2O[C@@]3(C)CC[C@H]4[C@H](C)CC[C@@H]([C@H]1C)[C@@]24OO3 (stereo partly drawn)
3. C[C@@H]1CC[C@H]2[C@@H](C)C(OCCCN3C(=O)C(=NNC(N)=S)c4cc(F)ccc43)O[C@@H]3O[C@@]4(C)CC[C@@H]1[C@]32OO4 (stereo partly drawn)
4. C[C@@H]1CC[C@H]2[C@@H](C)C(OCCCN3C(=O)C(=O)c4cc(Cl)ccc43)O[C@@H]3O[C@@]4(C)CC[C@@H]1[C@]32OO4 (stereo partly drawn)
5. Cc1ccc2c(c1)C(=NO)C(=O)N2CCCOC1O[C@@H]2O[C@@]3(C)CC[C@H]4[C@H](C)CC[C@@H]([C@H]1C)[C@@]24OO3 (stereo partly drawn)
6. C[C@@H]1CC[C@H]2[C@@H](C)C(OCCCN3C(=O)C(=NO)c4cc(Cl)ccc43)O[C@@H]3O[C@@]4(C)CC[C@@H]1[C@]32OO4 (stereo partly drawn)

1: 4.06; 2: 4.13; 3: 5.05; 4: 4.30; 5: 4.52; 6: 4.57

###

Assay: MTT cytotoxicity towards normal lung epithelial cells
Details: human, BEAS-2B normal lung epithelial cells
attribute measured: IC50

Record `C[C@@H]1CC[C@H]2[C@@H](C)C(=O)O[C@@H]3O[C@@]4(C)CC[C@@H]1[C@]32OO4` . Reported IC50: > 100 µM

###

System: A549, A549/DOX and A549/DDP lung cancer cell lines
Assay: MTT antiproliferative activity, summarised over the three lung cancer cell lines
Type: cell-based
Details: MTT assay, span of values over the three lung cancer cell lines; read-out: IC50 (range over A549, A549/DOX and A549/DDP)
attribute measured: IC50

[[record]]
compound = "COc1cccc2c1C(=O)c1c(O)c3c(c(O)c1C2=O)C[C@@](O)(C(=O)CO)C[C@@H]3O[C@H]1C[C@H](N)[C@H](O)[C@H](C)O1 [doxorubicin, reference compound]"
subject_of_test = "A549, A549/DOX and A549/DDP lung cancer cell lines"
attribute_measured = "IC50"
measured = "4.06 to 54.3 µM"


Report IC50 for each item below.
1. C[C@@H]1CC[C@H]2[C@@H](C)C(OCCCN3C(=O)C(=NNC(N)=S)c4cc(F)ccc43)O[C@@H]3O[C@@]4(C)CC[C@@H]1[C@]32OO4 (stereo partly drawn)
2. C[C@@H]1CC[C@H]2[C@@H](C)C(OCCCN3C(=O)C(=NO)c4ccccc43)O[C@@H]3O[C@@]4(C)CC[C@@H]1[C@]32OO4 (stereo partly drawn)

5.72 to 9.84 µM
5.72 to 9.84 µM

###

Test system: A549/DDP (cisplatin-resistant A549 cells)
Test: MTT antiproliferative activity against cisplatin-resistant A549
Format: cell-based
Details: Homo sapiens; MTT assay, cisplatin-resistant A549 cells
attribute measured: IC50 (µM)
Give bare numbers, in µM.

[[record]]
compound = "C[C@@H]1CC[C@H]2[C@@H](C)C(OCCCN3C(=O)C(=NO)c4cc(Cl)ccc43)O[C@@H]3O[C@@]4(C)CC[C@@H]1[C@]32OO4 (stereo partly drawn)"
units_of_measure = "µM"
measured = 31.9


The recorded IC50 for entry C[C@@H]1CC[C@H]2[C@@H](C)C(OCCCN3C(=O)C(=NNC(N)=S)c4cc(F)ccc43)O[C@@H]3O[C@@]4(C)CC[C@@H]1[C@]32OO4 (stereo partly drawn) equals 6.17
